- System: HCT-15
- measurement notes: Antiproliferative activity against human HCT15 cells assessed as growth inhibition after 48 hrs by sulforhodamine B assay
- Format: functional
- condition parameters: HCT-15, 48 h
property measured: GI50

1. COC(=O)[C@]12CC[C@@H](C)[C@H](C)[C@H]1C1=CC[C@@H]3[C@@]4(C)C/C(=N\O)[C@H](O)[C@@]5(C)COC(=C45)C[C@@]3(C)[C@]1(C)CC2 | 6600 nM

# batch size: 2; output GI50 per entry
1. COC(=O)[C@]12CC[C@@H](C)[C@H](C)[C@H]1C1=CC[C@@H]3[C@@]4(C)C[C@@H](OC(=O)c5ccco5)[C@H](O)[C@@](C)(CO)[C@@H]4[C@H](O)C[C@@]3(C)[C@]1(C)CC2
2. COC(=O)[C@]12CC[C@@H](C)[C@H](C)[C@H]1C1=CC[C@@H]3[C@@]4(C)C[C@@H](OC(C)=O)[C@H](OC(C)=O)[C@@](C)(COC(C)=O)[C@@H]4[C@H](O)C[C@@]3(C)[C@]1(C)CC2

1: 2300 nM; 2: 1700 nM

# batch size: 2; output GI50 per entry
1. COC(=O)[C@]12CC[C@@H](C)[C@H](C)[C@H]1C1=CC[C@@H]3[C@@]4(C)C[C@@H](OC(=O)/C=C/c5ccccc5)[C@H](O)[C@@](C)(CO)[C@@H]4[C@H](O)C[C@@]3(C)[C@]1(C)CC2
2. COC(=O)[C@]12CC[C@@H](C)[C@H](C)[C@H]1C1=CC[C@@H]3[C@@]4(C)C[C@@H](OC(C)=O)[C@H](O)[C@@](C)(CO)[C@@H]4[C@H](O)C[C@@]3(C)[C@]1(C)CC2

1: 2400 nM; 2: 11000 nM
